- measurementNotes: pKa measurement in water
- Assay type: physicochemical
- experimentalConditions: one measurement
- Excerpt: [drawing 2] • Compound 1 has a chemical name of 2-(3,5-dichloro-4-((5-isopropyl-6-oxo-1,6-dihydropyridazin-3-yl)oxy)phenyl)-6-methyl-1,2,4-triazine-3,5(2H,4H)-dione, based on ChemDraw software v. 18.0. […] When forming a salt described herein, those skilled in the art would understand that the hydrogen of the N—H of the triazinedione ring would be deprotonated to form an anion, which can be represented by the following structure: […]
measuredQuantity: pKa

Quick one: pKa for `Cc1nn(-c2cc(Cl)c(Oc3cc(C(C)C)c(=O)[nH]n3)c(Cl)c2)c(=O)[nH]c1=O` ?
~6.5

====

- measurementNotes: Solubility in water and bio-relevant media at 37° C. (HPLC of filtrate, pH of filtrate, XRPD of filter cake)
- Assay type: physicochemical
- experimentalConditions: filter cake obtained at 2 or 24 hours, Water

- compound: "Cc1nn(-c2cc(Cl)c(Oc3cc(C(C)C)c(=O)[nH]n3)c(Cl)c2)c(=O)[n-]c1=O.[K+] [Potassium salt Form 2]"
  XRPD: "Free acid"
- compound: "Cc1nn(-c2cc(Cl)c(Oc3cc(C(C)C)c(=O)[nH]n3)c(Cl)c2)c(=O)[n-]c1=O.[K+] [Potassium salt Form 1]"
  XRPD: "Free acid"

====

Recorded Purity at Day 7 (Area %) 40° C./75% RH values for a group of compounds are listed next.
- measurementNotes: Solid state stability at 60° C. and 40° C./75% RH for 7 days (HPLC purity, XRPD)
- Format: physicochemical
- experimentalConditions: 7 days at 40° C./75% RH, HPLC
Number only, in Area %; omit the unit.

Sample records with Purity at Day 7 (Area %) 40° C./75% RH:
- compound: "Cc1nn(-c2cc(Cl)c(Oc3cc(C(C)C)c(=O)[nH]n3)c(Cl)c2)c(=O)[n-]c1=O.[Na+] [Sodium salt Form A]"
  measuredQuantity: "Purity at Day 7 (Area %) 40° C./75% RH"
  recordedMeasurement: 98.02
- compound: "Cc1nn(-c2cc(Cl)c(Oc3cc(C(C)C)c(=O)[nH]n3)c(Cl)c2)c(=O)[n-]c1=O.[K+] [Potassium salt Form 1]"
  measuredQuantity: "Purity at Day 7 (Area %) 40° C./75% RH"
  recordedMeasurement: 99.29
- compound: "Cc1nn(-c2cc(Cl)c(Oc3cc(C(C)C)c(=O)[nH]n3)c(Cl)c2)c(=O)[n-]c1=O.[K+] [Potassium salt Form 2]"
  measuredQuantity: "Purity at Day 7 (Area %) 40° C./75% RH"
  recordedMeasurement: 98.97

Now look at this one.
I would be grateful if you could share the reported Purity at Day 7 (Area %) 40° C./75% RH for Cc1nn(-c2cc(Cl)c(Oc3cc(C(C)C)c(=O)[nH]n3)c(Cl)c2)c(=O)[nH]c1=O [Free acid Form I] .
96.42

====

- measurementNotes: Solubility in water and bio-relevant media at 37° C. (HPLC of filtrate, pH of filtrate, XRPD of filter cake)
- Type: physicochemical
- experimentalConditions: pH of the filtrate, Water, 24 h
Below is a list of entries, each paired with its recorded PH 24 h value.
Give only the figure.

# example entries with known answers
- compound: "Cc1nn(-c2cc(Cl)c(Oc3cc(C(C)C)c(=O)[nH]n3)c(Cl)c2)c(=O)[n-]c1=O.[K+] [Potassium salt Form 1]"
  PH 24 h: 10.57
- compound: "Cc1nn(-c2cc(Cl)c(Oc3cc(C(C)C)c(=O)[nH]n3)c(Cl)c2)c(=O)[nH]c1=O [Free acid Form I]"
  PH 24 h: 6.44
- compound: "Cc1nn(-c2cc(Cl)c(Oc3cc(C(C)C)c(=O)[nH]n3)c(Cl)c2)c(=O)[n-]c1=O.[Na+] [Sodium salt Form A]"
  PH 24 h: 10.63

// PH 24 h lookup, key: Cc1nn(-c2cc(Cl)c(Oc3cc(C(C)C)c(=O)[nH]n3)c(Cl)c2)c(=O)[n-]c1=O.[K+] [Potassium salt Form 2]
10.42
